Test system: barnyardgrass (Echinachloa crus-galli, ECC)
Assay: Post-emerge test, barnyardgrass
Format: in vivo
Conditions: 250 g ai/ha, 14 days after application, rating scale 0-100 (0 no damage, 100 complete death)
Procedure: A standard greenhouse herbicide activity screening system was used to evaluate the herbicidal efficacy and crop safety of these test compounds. […] At 14 days after application of the test materials, phytotoxicity ratings were recorded. […]
reportedMetric: Post-emerge Herbicidal Activity ECC (phytotoxicity rating)
API note: the answer field is a bare number with no unit suffix.

Use the examples below as a reference point.
compound | measurementTarget | numericValue
CC1Oc2cc(F)c(-c3nn(C)c(C(F)(F)F)c3Cl)c3c2N(C1=O)C(C)C(=O)N3 (mixture of isomers) [1-50] | barnyardgrass (Echinachloa crus-galli, ECC) | 99
CCC1C(=O)Nc2c(-c3nn(C)c(OC(F)F)c3Cl)c(F)cc3c2N1C(=O)CO3 (stereo not drawn) | barnyardgrass (Echinachloa crus-galli, ECC) | 99

# next compound below
*Q* Post-emerge Herbicidal Activity ECC (phytotoxicity rating) of CCC1C(=O)Nc2c3c(cc(F)c2-n2c(=O)cc(C(F)(F)F)n(C)c2=O)OCC(=O)N31 (stereo not drawn) on barnyardgrass (Echinachloa crus-galli, ECC)?
*A* 50

---

# Lookup of reported Post-emerge crop damage SOY (phytotoxicity rating) keyed by entry
System: soybean (Glycine max L., var. Pella 86, SOY)
Test: Post-emerge test, crop damage soybean
Assay type: in vivo
Conditions: post-emerge, 250 g ai/ha, 14 days after application, rating scale 0-100 (0 no damage, 100 complete death)

Use the examples below as a reference point.
compound | result
CC1C(=O)N(C)c2c(-c3nn(C)c(OC(F)F)c3Cl)c(F)cc3c2N1C(=O)CO3 (stereo not drawn) | 0
CC1Oc2cc(F)c(-c3nn(C)c(C(F)(F)F)c3Cl)c3c2N(C1=O)C(C(C)C)C(=O)N3 (mixture of isomers) | 20
Cn1nc(-c2c(F)cc3c4c2NC(=O)C(c2ccccc2)N4C(=O)CO3)c(Cl)c1OC(F)F (stereo not drawn) | 60
CC1C(=O)Nc2c(-c3nn(C)c(OC(F)F)c3Cl)c(F)cc3c2N1C(=O)C(C)(C)O3 (stereo not drawn) | 50
CC1Oc2cc(F)c(-c3nn(C)c(C(F)(F)F)c3Cl)c3c2N(C1=O)C(C)C(=O)N3 (mixture of isomers) [1-50] | 75
CC1Oc2cc(F)c(-c3nn(C)c(OC(F)F)c3Cl)c3c2N(C1=O)C(C)C(=O)N3 (mixture of isomers) | 100
CCC1C(=O)Nc2c(-c3nn(C)c(OC(F)F)c3Cl)c(F)cc3c2N1C(=O)CO3 (stereo not drawn) | 100
CCC1C(=O)Nc2c3c(cc(F)c2-n2nc(C)n(C(F)F)c2=O)OCC(=O)N31 (stereo not drawn) | 55

*Q* May I ask what Post-emerge crop damage SOY (phytotoxicity rating) has been recorded for CCC1C(=O)Nc2c3c(cc(F)c2-n2c(=O)cc(C(F)(F)F)n(C)c2=O)OCC(=O)N31 (stereo not drawn) ?
*A* 60

---

Tested on: wheat (Triticum aestivum)
Test: Pre-emerge test, crop damage wheat
Format: in vivo
Conditions: pre-emerge, 250 g ai/ha, 14 days after application, rating scale 0-100 (0 no damage, 100 complete death)
Procedure: A standard greenhouse herbicide activity screening system was used to evaluate the herbicidal efficacy and crop safety of these test compounds. […] At 14 days after application of the test materials, phytotoxicity ratings were recorded. […]
Classification field: true = Pre-emerge crop damage WHEAT (phytotoxicity rating) at or over 30; false = Pre-emerge crop damage WHEAT (phytotoxicity rating) under 30.

The examples below pair each entry with its known result.
compound | measurementTarget | className
Cn1nc(-c2c(F)cc3c4c2NC(=O)C(c2ccccc2)N4C(=O)CO3)c(Cl)c1C(F)(F)F (centres unmarked) | wheat (Triticum aestivum) | false
O=C1CN2C(=O)COc3cc(F)c(-c4ncc(C(F)(F)F)cc4Cl)c(c32)N1 | wheat (Triticum aestivum) | true
CC1Oc2cc(F)c(-c3nn(C)c(C(F)(F)F)c3Cl)c3c2N(C1=O)C(C)C(=O)N3 (mixture of isomers) [1-50] | wheat (Triticum aestivum) | false
CC1C(=O)Nc2c3c(cc(F)c2-n2c(=O)cc(C(F)(F)F)n(C)c2=O)OCC(=O)N31 (centres unmarked) | wheat (Triticum aestivum) | true
CC1Oc2cc(F)c(-c3nn(C)c(C(F)(F)F)c3Cl)c3c2N(C1=O)C(C(C)C)C(=O)N3 (mixture of isomers) | wheat (Triticum aestivum) | false
CC1Oc2cc(F)c(-c3nn(C)c(C(F)(F)F)c3Cl)c3c2N(C1=O)C(C)C(=O)N3 (mixture of isomers) [1-51] | wheat (Triticum aestivum) | true
Cn1c(C(F)(F)F)cc(=O)n(-c2c(F)cc3c4c2NC(=O)CN4C(=O)CO3)c1=O | wheat (Triticum aestivum) | true
Cc1nn(-c2c(F)cc3c4c2NC(=O)C(C)N4C(=O)CO3)c(=O)n1C(F)F (centres unmarked) | wheat (Triticum aestivum) | true
CC1Oc2cc(F)c(-c3nn(C)c(OC(F)F)c3Cl)c3c2N(C1=O)C(C)C(=O)N3 (mixture of isomers) | wheat (Triticum aestivum) | true
CCC1C(=O)Nc2c3c(cc(F)c2-n2nc(C)n(C(F)F)c2=O)OCC(=O)N31 (centres unmarked) | wheat (Triticum aestivum) | false

*Q* Reported Pre-emerge crop damage WHEAT (phytotoxicity rating) reaches at least 30 for CCC1C(=O)Nc2c(-c3nn(C)c(OC(F)F)c3Cl)c(F)cc3c2N1C(=O)CO3 (centres unmarked) ?
*A* true

*Q* Same again, this time with CC1C(=O)Nc2c(-c3ncc(C(F)(F)F)cc3Cl)c(F)cc3c2N1C(=O)CO3 (centres unmarked)
*A* true

*Q* Same again, this time with CCC1C(=O)Nc2c(-c3ncc(C(F)(F)F)cc3Cl)c(F)cc3c2N1C(=O)CO3 (centres unmarked)
*A* true

---

System: green foxtail (Setaria viridis, SEV)
Assay: Post-emerge test, green foxtail
Assay type: in vivo
Details: 250 g ai/ha, 14 days after application, rating scale 0-100 (0 no damage, 100 complete death)
reportedMetric: Post-emerge Herbicidal Activity SEV (phytotoxicity rating)
API note: the answer field is a bare number with no unit suffix.

Use the examples below as a reference point.
compound | numericValue
O=C1CN2C(=O)COc3cc(F)c(-c4ncc(C(F)(F)F)cc4Cl)c(c32)N1 | 100
CC1C(=O)N(C)c2c(-c3nn(C)c(OC(F)F)c3Cl)c(F)cc3c2N1C(=O)CO3 (stereo not drawn) | 60
Cc1nn(-c2c(F)cc3c4c2NC(=O)C(C)N4C(=O)CO3)c(=O)n1C(F)F (stereo not drawn) | 65

*Q* May I ask what Post-emerge Herbicidal Activity SEV (phytotoxicity rating) has been recorded for Cn1nc(-c2c(F)cc3c4c2NC(=O)C(c2ccccc2)N4C(=O)CO3)c(Cl)c1C(F)(F)F (stereo not drawn) ?
*A* 50

*Q* Same again, this time with C[C@H]1Oc2cc(F)c(-c3nn(C)c(OC(F)F)c3Cl)c3c2N(CC(=O)N3)C1=O
*A* 99

*Q* Same again, this time with Cc1nn(-c2c(F)cc3c4c2NC(=O)CN4C(=O)CO3)c(=O)n1C(F)F
*A* 50
